- target.or.system: Eukaryotic translation initiation factor 4H (Homo sapiens) (UniProt Q15056)
- measurement.notes: human eIF4H binding inhibitors, primary screen, translation initiation inhibitor project, biochemical, uHTS, fluorescence polarization (AID 2012);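 also: calls also rest on retests at 20 µM and on dose response follow-up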
- measurement.context: eIF4H fluorescence polarization binding assay; at 35 µM
About 2,700 (0.93%) of roughly 290,000 compounds were called active. No rule for the calls is given here. What follows is part of a selection rich in actives, with near analogues and random picks from the rest.
Form entry, call: pick from true for active, false for inactive

In: Tell me the recorded outcome of this test for CCOc1ccc(-c2n[nH]c(=S)n2/N=C/c2cc3c(cc2[N+](=O)[O-])OCO3)cc1 .
Out: true

In: Tell me the recorded outcome of this test for COC(=O)c1cnn2c(C(F)(F)F)cc(-c3ccco3)nc12 .
Out: false

In: Tell me the recorded outcome of this test for Cc1cc2ccccc2n1CCC(=O)O .
Out: true

In: Tell me the recorded outcome of this test for COc1cc([C@H](Cc2ccccc2)NC(C)=O)oc(=O)c1 .
Out: true

In: Tell me the recorded outcome of this test for Cc1ccc(NC(=O)CSc2nn3c(=O)c(C)nnc3s2)cc1Cl .
Out: false

In: Tell me the recorded outcome of this test for COC(=O)[C@@H]1CCCN1C(=O)c1cc(COc2cccc3cccnc23)on1 .
Out: false

In: Tell me the recorded outcome of this test for COc1ccc(CNC(=O)c2cc3c(=O)n4ccccc4nc3n(CC3CCCO3)c2=N)cc1 (stereo unspecified) .
Out: false

In: Tell me the recorded outcome of this test for C=CCn1c(=S)[nH]c2scc(-c3ccco3)c2c1=O .
Out: true

In: Tell me the recorded outcome of this test for N[C@@H](Cc1ccccc1)C(=O)N1CCC(C(=O)NCC(=O)Nc2ccc(F)cc2)CC1 .
Out: false

In: Tell me the recorded outcome of this test for COC(=O)[C@H](Cc1ccccc1)NC(=O)Nc1ccc(OC)cc1 .
Out: false

In: Tell me the recorded outcome of this test for Cc1cc(=O)n2[nH]c(-c3cccc(Cl)c3)cc2n1 .
Out: false
